Target: α7^L131V-GlyR (Homo sapiens, UniProt P36544, L131V)
Sequence (P36544 with tags, fused parts or gaps L131V): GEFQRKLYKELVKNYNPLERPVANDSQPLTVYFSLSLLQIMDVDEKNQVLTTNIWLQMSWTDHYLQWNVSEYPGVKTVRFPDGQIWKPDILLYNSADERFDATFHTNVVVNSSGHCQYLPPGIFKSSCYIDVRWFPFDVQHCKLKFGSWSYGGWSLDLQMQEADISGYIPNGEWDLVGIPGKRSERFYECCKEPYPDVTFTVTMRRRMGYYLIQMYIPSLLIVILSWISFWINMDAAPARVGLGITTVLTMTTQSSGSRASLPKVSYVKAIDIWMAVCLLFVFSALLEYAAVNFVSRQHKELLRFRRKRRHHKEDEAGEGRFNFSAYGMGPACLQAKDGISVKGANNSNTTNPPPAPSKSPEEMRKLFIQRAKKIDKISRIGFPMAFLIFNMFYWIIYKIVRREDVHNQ
Experiment: Agonist potency at chimeric channel (Table 9)
Would you mind telling me the reported EC50 of each entry?
Answers are plain numbers, in nM.

Worked cases, EC50 given:
compound	measured.on	value.unit	EC50
O=C(NC1CN2CCC1CC2)c1ccc(Cl)cc1 (stereo not drawn)	α7^L131V-GlyR (Homo sapiens, UniProt P36544, L131V)	nM	64
O=c1cccc2n1C[C@@H]1CNC[C@H]2C1	α7^L131V-GlyR (Homo sapiens, UniProt P36544, L131V)	nM	4300

Prompt line: Item under review: Clc1ccc(C2CC3CCC2N3)cn1 (stereo not drawn) [Epibatidine] . Reported EC50?
Response line: 210

----------
Target: α7^L131G-5HT3 HC (Homo sapiens, UniProt P36544, L131G, form not given)
Construct: rows headed: Agonist potency; other: α75HT3 L131G HC; α75HT3 L131G HC; fused on or other part: 5-HT3A receptor ion pore domain at the C-terminus
Sequence (P36544 23-224 L131G limits assumed, form open): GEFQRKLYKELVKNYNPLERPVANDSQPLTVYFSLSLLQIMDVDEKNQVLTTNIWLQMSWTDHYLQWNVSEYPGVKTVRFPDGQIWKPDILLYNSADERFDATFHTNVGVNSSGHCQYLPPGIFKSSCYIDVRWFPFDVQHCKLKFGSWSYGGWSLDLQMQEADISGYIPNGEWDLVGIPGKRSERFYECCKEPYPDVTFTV
Assay: Agonist potency at chimeric channel (Table 9)
Assay type: cell-based
Details: read-out: Agonist potency; α75HT3 L131G HC
readout: EC50

Prompt line: Item under review: Clc1ccc(C2CC3CCC2N3)cn1 (stereo not shown) [Epibatidine] . Reported EC50?
Response line: 9 nM

----------
Biological target: α7^Q79A-5HT3 (Homo sapiens, UniProt P36544, M226I/Q79A/T225I)
Construct: expressed in transfected cells; host or cells: HEK cells
Assay: Agonist potency (EC50), HEK cells expressing chimeric channel
Format: cell-based, human α7 nAChR LBD, murine 5HT3 IPD
Settings: HEK cells; Table 1; read-out: Mean EC50, α7^Q79A-5HT3
readout: pEC50
One number for each entry, as −log10 of the molar value.

Prompt line: Item under review: Cn1cc(C(=O)C(=O)NC2CN3CCC2CC3)c2ccccc21 (stereo not shown) . Reported pEC50?
Response line: 5.17

----------
Would you mind telling me the reported pEC50 of each entry?
Target: α7^L131F-GlyR (Homo sapiens, UniProt P36544, L131F)
Construct: expressed in transfected cells
Sequence (P36544 with tags, fused parts or gaps L131F): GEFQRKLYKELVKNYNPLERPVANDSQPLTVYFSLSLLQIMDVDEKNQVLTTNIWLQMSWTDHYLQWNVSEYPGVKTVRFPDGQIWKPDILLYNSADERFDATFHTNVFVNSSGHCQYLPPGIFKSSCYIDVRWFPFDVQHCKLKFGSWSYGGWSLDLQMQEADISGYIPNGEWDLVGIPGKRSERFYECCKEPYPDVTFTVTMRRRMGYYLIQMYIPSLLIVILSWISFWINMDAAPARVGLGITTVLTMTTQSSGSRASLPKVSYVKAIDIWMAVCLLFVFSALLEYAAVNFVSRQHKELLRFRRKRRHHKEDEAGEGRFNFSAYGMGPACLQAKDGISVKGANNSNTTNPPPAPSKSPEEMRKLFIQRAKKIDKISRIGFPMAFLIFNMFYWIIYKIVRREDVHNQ
Assay: Agonist potency at chimeric channel (Table 9)
Type: cell-based
Answers are plain numbers, as −log10 of the molar value.

molecule	value.reported
O=C(NC1CN2CCC1CC2)c1ccc(Cl)cc1 (centres unmarked)	6.70

Prompt line: Item under review: O=c1cccc2n1C[C@@H]1CNC[C@H]2C1 . Reported pEC50?
Response line: 4.98

----------
Biological target: α7^Q79G,Y115F,G175K-GlyR (Homo sapiens, UniProt P36544, G175K/Q79G/Y115F)
Construct: expressed in transfected cells
Sequence (P36544 with tags, fused parts or gaps Q79G/Y115F/G175K): as the sequence (P36544 with tags, fused parts or gaps L131V) above, with Q57G, Y93F, V109L, G153K counted along it
Test: Agonist potency at chimeric channel
Format: cell-based
readout: EC50

compound	EC50
O=c1cccc2n1C[C@@H]1CNC[C@H]2C1	> 10000 nM
Clc1ccc(C2CC3CCC2N3)cn1 (stereo not drawn) [Epibatidine]	220 nM

Prompt line: Item under review: O=C(NC1CN2CCC1CC2)c1ccc(Cl)cc1 (stereo not drawn) . Reported EC50?
Response line: 80 nM

----------
Biological target: α7^L131G,Q139L,Y217F-5HT3 HC (Homo sapiens, UniProt P36544, L131G/M226I/Q139L/T225I/Y217F)
Sequence (P36544 with tags, fused parts or gaps L131G/Q139L/Y217F/T225I/M226I limits assumed): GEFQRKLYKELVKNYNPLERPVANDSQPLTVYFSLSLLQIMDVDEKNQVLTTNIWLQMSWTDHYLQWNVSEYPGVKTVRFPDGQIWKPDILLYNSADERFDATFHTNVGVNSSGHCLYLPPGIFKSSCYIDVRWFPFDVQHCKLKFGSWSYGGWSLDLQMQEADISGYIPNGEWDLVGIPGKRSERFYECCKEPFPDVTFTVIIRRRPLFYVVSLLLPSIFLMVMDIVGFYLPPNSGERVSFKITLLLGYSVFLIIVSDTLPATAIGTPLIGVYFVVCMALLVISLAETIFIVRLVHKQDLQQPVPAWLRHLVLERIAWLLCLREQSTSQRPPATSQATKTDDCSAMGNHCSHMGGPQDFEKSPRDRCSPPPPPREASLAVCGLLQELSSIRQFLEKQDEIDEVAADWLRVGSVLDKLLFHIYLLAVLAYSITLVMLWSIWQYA
Experiment: Agonist potency at chimeric channel (Table 9)
Conditions: α75HT3 L131G Q139L Y217F HC
readout: EC50
Answer format reminder: number followed by unit.

Prompt line: Item under review: O=C(NC1CN2CCC1CC2)c1ccc(Cl)cc1 (stereo not shown) [PNU-282987] . Reported EC50?
Response line: 15 nM

----------
Molecular target: α7^L131G-GABAc (Homo sapiens, UniProt P36544, L131G)
Sequence (P36544 with tags, fused parts or gaps L131G): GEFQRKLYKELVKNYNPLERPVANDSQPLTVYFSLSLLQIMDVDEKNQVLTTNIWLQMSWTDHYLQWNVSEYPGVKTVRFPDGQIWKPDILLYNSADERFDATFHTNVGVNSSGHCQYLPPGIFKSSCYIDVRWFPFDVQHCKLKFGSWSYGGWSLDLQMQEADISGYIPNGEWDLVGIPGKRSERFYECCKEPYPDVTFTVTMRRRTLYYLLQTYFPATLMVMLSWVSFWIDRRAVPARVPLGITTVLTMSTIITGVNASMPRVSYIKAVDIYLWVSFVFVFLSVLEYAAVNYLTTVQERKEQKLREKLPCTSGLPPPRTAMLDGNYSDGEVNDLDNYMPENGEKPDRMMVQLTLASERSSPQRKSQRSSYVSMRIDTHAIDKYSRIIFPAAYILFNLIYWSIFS
Assay: Agonist potency at chimeric channel (Table 9)
pEC50: −log10 of the molar value.
readout: pEC50

Prompt line: Item under review: O=c1cccc2n1C[C@@H]1CNC[C@H]2C1 [Cytisine] . Reported pEC50?
Response line: < 3.30

----------
Would you mind telling me the reported EC50 of each entry?
Target: α7^L131G,Q139L-GlyR (Homo sapiens, UniProt P36544, L131G/Q139L)
Experiment: Agonist potency at chimeric channel (Table 9)
One number for each entry, in nM.

Worked cases, EC50 given:
molecule	value.unit	EC50
O=C(NC1CN2CCC1CC2)c1ccc(Cl)cc1 (stereo not drawn)	nM	63
O=c1cccc2n1C[C@@H]1CNC[C@H]2C1	nM	12000

Prompt line: Item under review: Clc1ccc(C2CC3CCC2N3)cn1 (stereo not drawn) [Epibatidine] . Reported EC50?
Response line: 12

----------
Target: α7^Q79G-GlyR^A298G (Homo sapiens, UniProt P36544, A298G/Q79G)
Construct: expressed in transfected cells; host or cells: HEK cells
Sequence (P36544 with tags, fused parts or gaps Q79G): as the sequence (P36544 with tags, fused parts or gaps L131V) above, with Q57G, V109L, A276G counted along it
Assay: Agonist potency (EC50), HEK cells expressing chimeric channel
Format: cell-based
Details: read-out: α7^Q79G-GlyR^A298G EC50
readout: EC50 (nM)
One number for each entry, in nM.

Prompt line: Item under review: O=C(NC1CN2CCC1CC2)c1ccc(Cl)cc1 (stereo not shown) . Reported EC50?
Response line: 7

----------
Molecular target: α7^L141F,Y115F,G175K-GlyR (Homo sapiens, UniProt P36544, G175K/L141F/Y115F)
Sequence (P36544 with tags, fused parts or gaps Y115F/L141F/G175K): as the sequence (P36544 with tags, fused parts or gaps L131F) above, with Y93F, F109L, L119F, G153K counted along it
Assay: Agonist potency at chimeric channel
readout: pEC50
Numbers only, as −log10 of the molar value.

Count: 3. Required value per item: pEC50.
1. O=c1cccc2n1C[C@@H]1CNC[C@H]2C1
2. O=C(NC1CN2CCC1CC2)c1ccc(Cl)cc1 (stereo not drawn)
3. Clc1ccc(C2CC3CCC2N3)cn1 (stereo not drawn) [Epibatidine]

Response line:
1: 5.32; 2: 6.29; 3: 6.84

----------
Target: α7^Q79S-GlyR (Homo sapiens, UniProt P36544, Q79S)
Sequence (P36544 with tags, fused parts or gaps Q79S): as the sequence (P36544 with tags, fused parts or gaps L131F) above, with Q57S, F109L counted along it
Assay: Agonist potency (EC50), HEK cells expressing chimeric channel
Would you mind telling me the reported EC50 of each entry?
Answers are plain numbers, in nM.

molecule	value.unit	value.reported
O=C(NC1CN2CCC1CC2)c1ccc(Cl)cc1 (stereo not drawn)	nM	14
Clc1ccc(C2CC3CCC2N3)cn1 (stereo not drawn) [Epibatidine]	nM	24

As a next step, examine the molecule that follows.
Prompt line: Item under review: O=c1cccc2n1C[C@@H]1CNC[C@H]2C1 . Reported EC50?
Response line: 2500

----------
Molecular target: α7GlyR R27D E41R Q79G Y115F (Homo sapiens, UniProt P36544, E41R/Q79G/R27D/Y115F)
Sequence (P36544 with tags, fused parts or gaps R27D/E41R/Q79G/Y115F): as the sequence (P36544 with tags, fused parts or gaps L131F) above, with R5D, E19R, Q57G, Y93F, F109L counted along it
Assay: Agonist potency at chimeric channel (Table 7)
Would you mind telling me the reported pEC50 of each entry?
One number for each entry, as −log10 of the molar value.

compound	pEC50
Clc1ccc(C2CC3CCC2N3)cn1 (stereo not drawn) [Epibatidine]	6.57

As a next step, examine the compound that follows.
Prompt line: Item under review: O=C(NC1CN2CCC1CC2)c1ccc(Cl)cc1 (stereo not drawn) [PNU-282987] . Reported pEC50?
Response line: 6.47

----------
Target: α7^Q79G-5HT3 (Homo sapiens, UniProt P36544, M226I/Q79G/T225I)
Construct: expressed in transfected cells; host or cells: HEK cells
Sequence (P36544 with tags, fused parts or gaps Q79G/T225I/M226I): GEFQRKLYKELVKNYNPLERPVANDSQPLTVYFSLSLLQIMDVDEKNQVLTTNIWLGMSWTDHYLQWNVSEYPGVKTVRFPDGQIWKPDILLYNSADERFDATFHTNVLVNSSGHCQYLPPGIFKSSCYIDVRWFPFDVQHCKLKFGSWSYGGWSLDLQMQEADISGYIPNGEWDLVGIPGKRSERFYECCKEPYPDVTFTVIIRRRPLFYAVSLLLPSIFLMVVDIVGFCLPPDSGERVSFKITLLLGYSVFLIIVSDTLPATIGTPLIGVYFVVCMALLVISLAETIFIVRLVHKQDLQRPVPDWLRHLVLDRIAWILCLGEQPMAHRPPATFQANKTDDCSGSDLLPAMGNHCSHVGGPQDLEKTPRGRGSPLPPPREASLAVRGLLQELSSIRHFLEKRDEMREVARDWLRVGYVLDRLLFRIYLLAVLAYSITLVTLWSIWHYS
Assay: Agonist potency (EC50), HEK cells expressing chimeric channel
Format: cell-based, human α7 nAChR LBD, murine 5HT3 IPD
Details: read-out: Mean EC50, α7^Q79G-5HT3; HEK cells; Table 1
readout: EC50 (nM)
Answers are plain numbers, in nM.

Prompt line: Item under review: Clc1ccc(C2CC3CCC2N3)cn1 (stereo not shown) [Epibatidine] . Reported EC50?
Response line: 50

----------
Would you mind telling me the reported pEC50 of each entry?
Target: α7GlyR Q79S L131G Q139L Y217F (Homo sapiens, UniProt P36544, L131G/Q139L/Q79S/Y217F)
Construct: expressed in transfected cells
Test: cell-based
Numbers only, as −log10 of the molar value.

compound	value.reported
O=C(NC1CN2CCC1CC2)c1ccc(Cl)cc1 (centres unmarked)	7.30

As a next step, examine the compound that follows.
Prompt line: Item under review: Clc1ccc(C2CC3CCC2N3)cn1 (centres unmarked) [Epibatidine] . Reported pEC50?
Response line: 7.66

----------
Target: α7^Q79G-5HT3 (Homo sapiens, UniProt P36544, M226I/Q79G/T225I)
Construct: expressed in transfected cells; host or cells: HEK cells
Assay: Agonist potency (EC50), HEK cells expressing chimeric channel
Assay type: cell-based, human α7 nAChR LBD, murine 5HT3 IPD
Settings: HEK cells; Table 1; read-out: Mean EC50, α7^Q79G-5HT3
readout: pEC50
Answers are plain numbers, as −log10 of the molar value.

Prompt line: Item under review: Cn1cc(C(=O)C(=O)NC2CN3CCC2CC3)c2ccccc21 (stereo not shown) . Reported pEC50?
Response line: 5.85

----------
Biological target: α7^R27D,E41R,Q79G,Y115F-GlyR^A298G (Homo sapiens, UniProt P36544, A298G/E41R/Q79G/R27D/Y115F)
Test: Agonist potency (EC50), HEK cells expressing chimeric channel
Conditions: Table 4, read-out: Mean EC50, α7^R27D,E41R,Q79G,115F-GlyR^A298G
readout: pEC50
One number for each entry, as −log10 of the molar value.

Prompt line: Item under review: O=C(NC1CN2CCC1CC2)c1ccc(Cl)cc1 (stereo not shown) [PNU-282987] . Reported pEC50?
Response line: 7.18
